Ref: paper PMC5601360

molecular target: human KOP receptor (Homo sapiens, UniProt P41145); construct: expressed in transfected cells; host or cells: CHO-hKOP cells (gift of Dr. Lawrence Toll, SRI International); assay: Competition binding assay, CHO-hKOP cell membranes, [3H]U69,593; details: Ki ratio MOP/KOP
Provide the reported selectivity MOP/KOP of each item.
Give bare numbers.

// below: answered compounds
>>> print(df.to_string())
                                   compound                       experimental_target  experimental_value
0  Cl.Oc1cccc(CCN(CCc2ccccc2)CC2CCCC2)c1 [Compound 3]  human KOP receptor (Homo sapiens, UniProt P41145)               16118
1  Cl.Oc1ccc(CCN(CCc2cccc(O)c2F)CC2CCC2)cc1 [Compound 21]  human KOP receptor (Homo sapiens, UniProt P41145)                 155
2  Cl.Oc1cccc(CCN(CCc2ccccc2)C2CCC2)c1 [Compound 6]  human KOP receptor (Homo sapiens, UniProt P41145)                  65
3  Cl.Oc1cccc(CCN(CCc2cccc(O)c2)CC2CCC2)c1 [Compound 8]  human KOP receptor (Homo sapiens, UniProt P41145)                 605
4  Cl.Oc1ccc(CCN(CCc2cccc(O)c2)CC2CC2)cc1 [Compound 17]  human KOP receptor (Homo sapiens, UniProt P41145)                 129
5  Cl.Oc1ccc(CCN(CCc2cccc(O)c2)CC2CCC2)cc1 [Compound 14]  human KOP receptor (Homo sapiens, UniProt P41145)                   5

Please supply selectivity MOP/KOP for each of the following items, keeping them in order.
1. Cl.Oc1cccc(CCN(CCc2cccc(O)c2)CC2CC2)c1 [Compound 9]
2. Cl.Oc1cccc(CCN(CCc2cccc(O)c2)CC2CCCCC2)c1 [Compound 11]
3. C=CCN(CCc1cccc(O)c1)CCc1cccc(O)c1.Cl [Compound 10]
4. Cl.Oc1cccc(CCN(CCc2cccc(O)c2)CC2CCCC2)c1 [Compound 12]
5. c1ccc(CCN(CCc2ccccc2)CC2CCC2)cc1 [Compound 22]
6. C=CCN(CCc1ccc(O)cc1)CCc1cccc(O)c1 [Compound 16]
7. Cl.Oc1cccc(CCN(CCc2ccccc2)CC2CCCCC2)c1 [Compound 4]

137
1193
19
1884
13
4
8803
